biological target: Aldehyde dehydrogenase (Saccharomyces cerevisiae); assay: In vitro inhibition against yeast Aldehyde dehydrogenase
readoutKind: pIC50
# pIC50 is unitless: minus log10 of the molar concentration; print number only

Task: Entry `CC(=O)ON1C(=O)c2ccccc2S1(=O)=O` , system Aldehyde dehydrogenase (Saccharomyces cerevisiae): what pIC50 was measured?
Result: 3.62
